pKi: −log10 of the molar value.
The following are reported pKi results, target or system Norepinephrine transporter (Rattus norvegicus, UniProt Q9JIA2).
measure-name: pKi

# chemical-smiles, measure-name, test-value
measured = [
    ("N[C@H]1CC[C@@H](c2ccc(Cl)c(Cl)c2)c2ccccc21", "pKi", 5.34),
    ("COCCCC/C(=N\\OCCN)c1ccc(C(F)(F)F)cc1", "pKi", 5.72),
    ("CN[C@@H]1CC[C@@H](c2ccccc2)c2ccccc21", "pKi", 7.74),
    ("CN(C)CCC=C1c2ccccc2CCc2ccccc21", "pKi", 6.89),
]

----------
Measured pKi by item
# measured-target: Muscarinic acetylcholine receptor M2 (Rattus norvegicus, UniProt P10980)
# Sequence (P10980 whole entry): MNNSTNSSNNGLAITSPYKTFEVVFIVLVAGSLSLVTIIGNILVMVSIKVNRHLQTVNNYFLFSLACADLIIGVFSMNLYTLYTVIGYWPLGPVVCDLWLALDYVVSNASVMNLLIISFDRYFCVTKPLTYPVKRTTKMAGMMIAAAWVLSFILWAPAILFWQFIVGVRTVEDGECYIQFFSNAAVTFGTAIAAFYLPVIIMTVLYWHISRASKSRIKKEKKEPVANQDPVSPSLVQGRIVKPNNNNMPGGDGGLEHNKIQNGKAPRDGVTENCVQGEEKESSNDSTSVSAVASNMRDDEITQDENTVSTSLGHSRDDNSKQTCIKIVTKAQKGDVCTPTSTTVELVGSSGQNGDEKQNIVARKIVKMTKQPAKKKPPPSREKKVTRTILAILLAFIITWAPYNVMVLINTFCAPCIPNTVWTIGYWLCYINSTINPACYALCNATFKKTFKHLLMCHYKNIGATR
pKi: −log10 of the molar value.
measure-name: pKi

# compound, measure-name, modifier-sign, test-value
rows = [
    ("CNCCCN1c2ccccc2CCc2ccccc21 [Desmethylimipramine]", "pKi", "=", 5.46),
    ("CN[C@@H]1CC[C@@H](c2ccc(Cl)c(Cl)c2)c2ccccc21", "pKi", "<", 5.00),
    ("CN(C)CCC=C1c2ccccc2CCc2ccccc21", "pKi", "=", 6.49),
    ("CN[C@@H]1CC[C@@H](c2ccccc2)c2ccccc21", "pKi", "=", 5.33),
]

----------
// each record: one item and its Ki for Sodium-dependent dopamine transporter (Rattus norvegicus)

# chemical-smiles, Ki
data = [
    ("CNCCC=C1c2ccccc2CCc2ccccc21", "> 10 µM"),
    ("COCCCC/C(=N\\OCCN)c1ccc(C(F)(F)F)cc1", "> 10 µM"),
    ("CN(C)CCC=C1c2ccccc2CCc2ccccc21", "> 10 µM"),
]
